- experimentalSystem: Ornithodoros moubata Coversin (EV576, OmCI), amino acids 19 to 168 of SEQ ID NO: 2 (SEQ ID NO: 4) (Ornithodoros moubata, UniProt Q5YD59)
- Sequence (Q5YD59 19-168): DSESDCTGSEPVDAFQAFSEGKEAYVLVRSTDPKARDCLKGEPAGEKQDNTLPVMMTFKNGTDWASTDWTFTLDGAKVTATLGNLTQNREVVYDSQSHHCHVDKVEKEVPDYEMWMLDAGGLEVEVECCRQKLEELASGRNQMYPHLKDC
readoutType: Kd

Ask: Check the records and state Kd for `CCCCC/C=C\C[C@@H](O)/C=C/C=C/C=C\[C@@H](O)CCCC(=O)O`
Reply: 0.2 to 0.3 nM
